Tested on: larvae of the mustard beetle (Phaedon cochleariae)
Test: Phaedon test (PHAECO spray treatment)
Conditions: Phaedon cochleariae, 168 h, read-out: activity in % (beetle larvae killed)
METRIC: pest or weed control at 100 g/ha (%)
Your answer is read as %, so omit the unit and give the number.

For orientation, consider the following solved cases.
1) Cc1cc(C#N)cc(C(=O)NC2CSC2)c1NC(=O)c1cc(Cn2nnc(C(F)(F)F)n2)nn1-c1ccccc1Cl ... 100
2) Cc1cc(C#N)cc(C(=O)NCc2cccc(OC(F)F)c2)c1NC(=O)c1cc(Cn2nnc(C(F)(F)F)n2)nn1-c1ccccc1Cl ... 100

Next compound, please.
(Q) Record request: pest or weed control at 100 g/ha value, item Cc1cc(Cl)cc(C(=O)NCc2ccc(OC(F)F)cc2)c1NC(=O)c1cc(Cn2nnc(C(F)F)n2)nn1-c1ncccc1Cl
(A) 100

====

Reported chromatographic logP values follow for various compounds
Experiment: log P by HPLC on reversed-phase columns (EEC Directive 79/831 Annex V.A8)
Format: physicochemical
Settings: pH 2.7, log P
A bare number is all that is needed in reply.

For orientation, consider the following solved cases.
1) Cc1cc(Cl)cc(C(=O)NCc2ccc(F)cc2)c1NC(=O)c1cc(Cn2nnc(C(F)(F)F)n2)nn1-c1ncccc1Cl [Example 99] ... 3.81
2) Cc1cc(Cl)cc(C(=O)NCc2cccc(Cl)c2)c1NC(=O)c1cc(Cn2nnc(C(F)(F)F)n2)nn1-c1ncccc1Cl [Example 116] ... 4.1
3) O=C(NC1COC1)c1cc(Cl)cc(Cl)c1NC(=O)c1cc(Cn2nnc(C(F)(F)C(F)(F)F)n2)nn1-c1ncccc1Cl [Example 10] ... 3.18
4) Cc1cc(Cl)cc(C(=O)NCC2(C)CCCO2)c1NC(=O)c1cc(Cn2nnc(C(F)(F)F)n2)nn1-c1ncccc1Cl (centres unmarked) [Example 61] ... 3.48
5) Cc1cc(C#N)cc(C(=O)NC2CCS(=O)(=O)C2)c1NC(=O)c1cc(Cn2nnc(C(F)(F)F)n2)nn1-c1ncccc1Cl (centres unmarked) [Example 29] ... 2.47

Next compound, please.
(Q) Record request: chromatographic logP value, item Cc1cc(Cl)cc(C(=O)NC(C)c2cccc(Cl)c2)c1NC(=O)c1cc(Cn2nnc(C(F)(F)F)n2)nn1-c1ncccc1Cl (centres unmarked) [Example 110]
(A) 4.31

====

Reported chromatographic logP values follow for various molecules
Test: log P by HPLC on reversed-phase columns (EEC Directive 79/831 Annex V.A8)
Type: physicochemical
Settings: pH 2.7, log P
A bare number is all that is needed in reply.

1) Cc1cc(Cl)cc(C(=O)NC(C)c2ccc(F)cc2)c1NC(=O)c1cc(Cn2nnc(C(F)(F)F)n2)nn1-c1ncccc1Cl (stereo not shown) [Example 122] ... 4

(Q) Record request: chromatographic logP value, item Cc1cccc(CNC(=O)c2cc(Cl)cc(C)c2NC(=O)c2cc(Cn3nnc(C(F)(F)F)n3)nn2-c2ncccc2Cl)c1 [Example 89]
(A) 4.08

(Q) Record request: chromatographic logP value, item Cc1cc(Cl)cc(C(=O)NCc2ccc(F)cc2F)c1NC(=O)c1cc(Cn2nnc(C(F)(F)F)n2)nn1-c1ncccc1Cl [Example 107]
(A) 3.9

(Q) Record request: chromatographic logP value, item Cc1cc(C)c(NC(=O)c2cc(Cn3nnc(C(F)(F)F)n3)nn2-c2ncccc2Cl)c(C(=O)NC2COC2)c1 [Example 7]
(A) 2.67

(Q) Record request: chromatographic logP value, item Cc1cc(Br)cc(C(=O)NC2COC2)c1NC(=O)c1cc(Cn2nnc(C(F)(F)F)n2)nn1-c1ncccc1Cl [Example 3]
(A) 2.87

(Q) Record request: chromatographic logP value, item Cc1cc(Cl)cc(C(=O)NCc2cc(Cl)ccc2Cl)c1NC(=O)c1cc(Cn2nnc(C(F)(F)F)n2)nn1-c1ncccc1Cl [Example 106]
(A) 4.39

(Q) Record request: chromatographic logP value, item Cc1ccccc1CNC(=O)c1cc(Cl)cc(C)c1NC(=O)c1cc(Cn2nnc(C(F)(F)F)n2)nn1-c1ncccc1Cl [Example 119]
(A) 4.03

====

Assay: log P by HPLC on reversed-phase columns (EEC Directive 79/831 Annex V.A8)
Format: physicochemical
Conditions: reversed-phase C18 HPLC column, pH 2.7, HPLC reversed-phase C18, acidic range pH 2.7 (HCOOH); only or first value of the cell; read-out: log P
Reported chromatographic logP values follow for various compounds

For orientation, consider the following solved cases.
1) Cc1cc(Cl)cc(C(=O)NCc2cc(F)cc(F)c2F)c1NC(=O)c1cc(Cn2nnc(C(F)(F)F)n2)nn1-c1ncccc1Cl [Example 109] ... 3.98
2) Cc1ccc(Cl)c(C(=O)NCc2ccccc2OC(F)(F)F)c1NC(=O)c1cc(Cn2nnc(C(F)(F)F)n2)nn1-c1ncccc1Cl [Example 199] ... 3.92
3) Cc1cc(C#N)cc(C(=O)NCc2ccccc2)c1NC(=O)c1cc(Cn2nc(C(F)(F)F)c(C(F)(F)F)n2)nn1-c1ncccc1Cl [Example 136] ... 4.15

(Q) Record request: chromatographic logP value, item Cc1cc(C#N)cc(C(=O)NCc2ccc(OC(F)(F)F)cc2)c1NC(=O)c1cc(Cn2nnc(C(F)F)n2)nn1-c1ncccc1Cl [Example 164]
(A) 3.42

(Q) Record request: chromatographic logP value, item Cc1cc(Cl)cc(C(=O)NCc2ccc(C(F)(F)F)cc2)c1NC(=O)c1cc(Cn2nnc(C(F)(F)F)n2)nn1-c1ncccc1Cl [Example 96]
(A) 4.21

====

System: caterpillars of the armyworm (Spodoptera frugiperda)
Assay: Spodoptera frugiperda test (SPODFR spray treatment)
Format: in vivo
Conditions: Spodoptera frugiperda, 168 h; application rate 100 g/ha, after 7 days; read-out: activity in % (caterpillars killed)
Reported pest or weed control at 100 g/ha values follow for various compounds
Your answer is read as %, so omit the unit and give the number.

(Q) Record request: pest or weed control at 100 g/ha value, item Cc1cc(C#N)cc(C(=O)NCc2ccc(OC(F)(F)F)cc2)c1NC(=O)c1cc(Cn2nnc(C(F)(F)F)n2)nn1-c1c(Cl)cccc1Cl
(A) 100

(Q) Record request: pest or weed control at 100 g/ha value, item Cc1cc(C#N)cc(C(=O)NCc2cccc(OC(F)F)c2)c1NC(=O)c1cc(Cn2nnc(C(F)(F)F)n2)nn1-c1c(Cl)cccc1Cl
(A) 100

(Q) Record request: pest or weed control at 100 g/ha value, item Cc1cc(I)cc(C(=O)NCc2cccc(OC(F)(F)F)c2)c1NC(=O)c1cc(Cn2nnc(C(F)(F)F)n2)nn1-c1ncccc1Cl
(A) 100

====

Test: log P by HPLC on reversed-phase columns (EEC Directive 79/831 Annex V.A8)
Type: physicochemical
Details: reversed-phase C18 HPLC column, pH 2.7, HPLC reversed-phase C18, acidic range pH 2.7 (HCOOH); only or first value of the cell; read-out: log P
METRIC: chromatographic logP
A bare number is all that is needed in reply.

(Q) Record request: chromatographic logP value, item Cc1cc(I)cc(C(=O)NCc2ccc(OC(F)F)cc2)c1NC(=O)c1cc(Cn2nnc(C(F)(F)C(F)(F)F)n2)nn1-c1ncccc1Cl
(A) 4.35

(Q) Record request: chromatographic logP value, item O=C(NCc1cccc(OC(F)(F)F)c1)c1cc(Br)cc(Cl)c1NC(=O)c1cc(Cn2nnc(C(F)(F)F)n2)nn1-c1ncccc1Cl
(A) 4.32

(Q) Record request: chromatographic logP value, item Cc1cc(Cl)cc(C(=O)NCc2cccc(OC(F)(F)F)c2)c1NC(=O)c1cc(Cn2nnc(C(F)(F)F)n2)nn1-c1ncccc1Cl
(A) 4.36

====

Test: log P by HPLC on reversed-phase columns (EEC Directive 79/831 Annex V.A8)
Format: physicochemical
Conditions: reversed-phase C18 HPLC column, pH 2.7, HPLC reversed-phase C18, acidic range pH 2.7 (HCOOH); only or first value of the cell; read-out: log P
Response key: Yes means chromatographic logP >= 4; No means chromatographic logP < 4.

Here are 5 compounds together with their reported answers.
1. Cc1cc(C#N)cc(C(=O)NCc2ccc(OC(F)(F)F)cc2)c1NC(=O)c1cc(Cn2nnc(C(F)(F)F)n2)nn1-c1c(Cl)cccc1Cl ... Yes
2. Cc1cc(C#N)cc(C(=O)NCc2ccc(OC(F)F)cc2)c1NC(=O)c1cc(Cn2nnc(C(F)(F)F)n2)nn1-c1ccccc1Cl ... No
3. Cc1cc(Cl)cc(C(=O)N[C@H](C)c2ccc([N+](=O)[O-])cc2)c1NC(=O)c1cc(Cn2nnc(C(F)(F)F)n2)nn1-c1ncccc1Cl ... No
4. COc1ccc(CNC(=O)c2cc(C#N)cc(C)c2NC(=O)c2cc(Cn3nnc(C(F)(F)F)n3)nn2-c2ccccc2Cl)cc1 ... No
5. Cc1cc(I)cc(C(=O)NCc2cccc(OC(F)(F)F)c2)c1NC(=O)c1cc(Cn2nnc(C(F)(F)C(F)(F)F)n2)nn1-c1ncccc1Cl ... Yes

(Q) Hi, just wondering whether O=C(NCc1ccccc1OC(F)(F)F)c1cc(Cl)cc(F)c1NC(=O)c1cc(Cn2nnc(C(F)(F)F)n2)nn1-c1ncccc1Cl shows chromatographic logP of 4 or higher.
(A) Yes

(Q) Hi, just wondering whether Cc1cc(Cl)cc(C(=O)NCc2ccc(OC(F)(F)F)cc2)c1NC(=O)c1cc(Cn2nnc(C(F)F)n2)nn1-c1ncccc1Cl shows chromatographic logP of 4 or higher.
(A) No

(Q) Hi, just wondering whether Cc1cc(Cl)cc(C(=O)NC2CCN(Cc3ccccc3)C2)c1NC(=O)c1cc(Cn2nnc(C(F)(F)C(F)(F)F)n2)nn1-c1ncccc1Cl (stereo not shown) shows chromatographic logP of 4 or higher.
(A) No

(Q) Hi, just wondering whether O=C(NCc1cccc(Cl)c1)c1cc2ccccc2c(Cl)c1NC(=O)c1cc(Cn2nnc(C(F)(F)F)n2)nn1-c1ncccc1Cl shows chromatographic logP of 4 or higher.
(A) Yes

(Q) Hi, just wondering whether Cc1cc(C#N)cc(C(=O)NCc2ccc(Cl)cc2Cl)c1NC(=O)c1cc(Cn2nnc(C(F)(F)F)n2)nn1-c1ccccc1Cl shows chromatographic logP of 4 or higher.
(A) Yes

(Q) Hi, just wondering whether Cc1cc(Cl)cc(C(=O)NCc2ncc(C(F)(F)F)cc2Cl)c1NC(=O)c1cc(Cn2nnc(C(F)(F)F)n2)nn1-c1ncccc1Cl shows chromatographic logP of 4 or higher.
(A) Yes

(Q) Hi, just wondering whether Cc1cc(C#N)cc(C(=O)NCc2ccc(S(F)(F)(F)(F)F)cc2)c1NC(=O)c1cc(Cn2nnnc2C(F)(F)F)nn1-c1ncccc1Cl shows chromatographic logP of 4 or higher.
(A) No

(Q) Hi, just wondering whether Cc1cc(Cl)cc(C(=O)NC2CCS(=O)(=O)C2)c1NC(=O)c1cc(Cn2nnc(C(F)(F)C(F)(F)F)n2)nn1-c1ncccc1Cl (stereo not shown) shows chromatographic logP of 4 or higher.
(A) No

(Q) Hi, just wondering whether Cc1cc(C#N)cc(C(=O)NC2COC2)c1NC(=O)c1cc(Cn2nnc(C(F)(F)F)n2)nn1-c1c(Cl)cccc1Cl shows chromatographic logP of 4 or higher.
(A) No

(Q) Hi, just wondering whether Cc1cc(C#N)cc(C(=O)NCc2cccc(OC(F)(F)F)c2)c1NC(=O)c1cc(Cn2nnc(C(F)(F)F)n2)nn1-c1ccccc1Cl shows chromatographic logP of 4 or higher.
(A) Yes

(Q) Hi, just wondering whether Cc1cc(C#N)cc(C(=O)NC2CCS(=O)(=O)C2)c1NC(=O)c1cc(Cn2nnc(C(F)(F)F)n2)nn1-c1c(F)cccc1F (stereo not shown) shows chromatographic logP of 4 or higher.
(A) No

(Q) Hi, just wondering whether Cc1cc(Cl)cc(C(=O)NCc2ccc([N+](=O)[O-])cc2)c1NC(=O)c1cc(Cn2nnc(C(F)(F)F)n2)nn1-c1ncccc1Cl shows chromatographic logP of 4 or higher.
(A) No
